Each entry below carries its reported selectivity ratio.
Test: Selectivity index, ratio of CC50 for human MT4 cells to EC50 for HIV1 3B
Type: toxicity, cell-based
Settings: read-out: Ratio CC50/EC50

Solved cases (9 shown):
N#Cc1ccc(Nc2nccc(/C(=N\O)c3ccc(F)cc3)n2)cc1
> 456
N#Cc1ccc(Nc2nccc(/C(=N\O)c3cccc(Br)c3)n2)cc1
65
N#Cc1ccc(Nc2nccc(/C(=N\O)c3ccc(Br)cc3)n2)cc1
205
Cc1ccccc1/C(=N/O)c1ccnc(Nc2ccc(C#N)cc2)n1
619
Cc1ccnc2c1NC(=O)c1cccnc1N2C1CC1
> 75
Cc1cc(C)cc(/C(=N/O)c2ccnc(Nc3ccc(C#N)cc3)n2)c1
756
N#Cc1ccc(Nc2nccc(/C(=N\O)c3cccc4ccccc34)n2)cc1
844
N#Cc1ccc(Nc2nccc(/C(=N\O)c3cccc(Cl)c3)n2)cc1
102
CC(C)Nc1cccnc1N1CCN(C(=O)c2cc3cc(NS(C)(=O)=O)ccc3[nH]2)CC1
> 62

Could you now consider this next compound?
selectivity ratio for N#Cc1ccc(Nc2nccc(/C(=N\O)c3ccccc3Cl)n2)cc1 ?
997

* * *

Assay: Selectivity index, ratio of CC50 for human MT4 cells to EC50 for HIV1 3B
Type: toxicity, cell-based
Conditions: read-out: Ratio CC50/EC50
# note: boundary value 600 maps to false (0); selectivity ratio below it maps to true (1)

State whether 600 exceeds selectivity ratio recorded for COc1ccc(/C(=N/O)c2ccnc(Nc3ccc(C#N)cc3)n2)cc1 .
false (0)

State whether 600 exceeds selectivity ratio recorded for N#Cc1ccc(Nc2nccc(/C(=N\O)c3ccccc3)n2)cc1 .
true (1)

State whether 600 exceeds selectivity ratio recorded for Cc1cccc(/C(=N/O)c2ccnc(Nc3ccc(C#N)cc3)n2)c1 .
false (0)

State whether 600 exceeds selectivity ratio recorded for N#Cc1ccc(Nc2nccc(/C(=N\O)c3ccc(Cl)cc3)n2)cc1 .
true (1)

State whether 600 exceeds selectivity ratio recorded for COc1cccc(/C(=N/O)c2ccnc(Nc3ccc(C#N)cc3)n2)c1 .
false (0)

* * *

Assay: Selectivity index, ratio of CC50 for human MT4 cells to EC50 for HIV2 ROD
Format: toxicity, cell-based
Settings: read-out: Ratio CC50/EC50
Each entry below carries its reported selectivity ratio.

selectivity ratio for N#Cc1ccc(Nc2nccc(/C(=N\O)c3cccc(Br)c3)n2)cc1 ?
< 1

selectivity ratio for N#Cc1ccc(Nc2nccc(/C(=N\O)c3ccc(Cl)cc3)n2)cc1 ?
≤ 2

selectivity ratio for Cc1ccccc1/C(=N/O)c1ccnc(Nc2ccc(C#N)cc2)n1 ?
< 1

selectivity ratio for N#Cc1ccc(Nc2nccc(/C(=N\O)c3cccc(Cl)c3)n2)cc1 ?
≤ 4

selectivity ratio for N#Cc1ccc(Nc2nccc(/C(=N\O)c3cccc4ccccc34)n2)cc1 ?
< 1

selectivity ratio for N#Cc1ccc(Nc2nccc(/C(=N\O)c3ccccc3Br)n2)cc1 ?
< 1

* * *

Test: Cytotoxicity against human MT4 cells after 4 days by MTT assay
Format: cell-based
reportedEndpoint: CC50 at 96 h (µM)
// return numeric value only (unit: µM, not printed)

CC50 at 96 h for COc1cccc(/C(=N/O)c2ccnc(Nc3ccc(C#N)cc3)n2)c1 ?
30.5

CC50 at 96 h for N#Cc1ccc(Nc2nccc(/C(=N\O)c3ccccc3)n2)cc1 ?
14

* * *

Assay: Selectivity index, ratio of CC50 for human MT4 cells to EC50 for HIV2 ROD
Type: toxicity, cell-based
Details: read-out: Ratio CC50/EC50
reportedEndpoint: selectivity ratio

COc1cccc(/C(=N/O)c2ccnc(Nc3ccc(C#N)cc3)n2)c1
3.67
N#Cc1ccc(Nc2nccc(/C(=N\O)c3ccccc3Cl)n2)cc1
< 1

selectivity ratio for N#Cc1ccc(Nc2nccc(/C(=N\O)c3ccccc3F)n2)cc1 ?
< 1

selectivity ratio for N#Cc1ccc(Nc2nccc(/C(=N\O)c3cccc(F)c3)n2)cc1 ?
≤ 2

selectivity ratio for Cc1cccc(/C(=N/O)c2ccnc(Nc3ccc(C#N)cc3)n2)c1 ?
< 1

selectivity ratio for CC(C)(C)c1ccc(/C(=N/O)c2ccnc(Nc3ccc(C#N)cc3)n2)cc1 ?
< 1

selectivity ratio for N#Cc1ccc(Nc2nccc(/C(=N\O)c3ccccc3)n2)cc1 ?
< 1

selectivity ratio for N#Cc1ccc(Nc2nccc(/C(=N\O)c3ccc4ccccc4c3)n2)cc1 ?
< 1

selectivity ratio for COc1ccc(/C(=N/O)c2ccnc(Nc3ccc(C#N)cc3)n2)cc1 ?
≤ 11

* * *

Each entry below carries its reported CC50 at 96 h.
Test: Cytotoxicity against human MT4 cells after 4 days by MTT assay
Format: cell-based
// return numeric value only (unit: µM, not printed)

Solved cases (5 shown):
N#Cc1ccc(Nc2nccc(/C(=N\O)c3ccc(Br)cc3)n2)cc1
26
N#Cc1ccc(Nc2nccc(/C(=N\O)c3cccc(Br)c3)n2)cc1
23.5
Cc1ccccc1/C(=N/O)c1ccnc(Nc2ccc(C#N)cc2)n1
29.9
N#Cc1ccc(Nc2nccc(/C(=N\O)c3cccc(Cl)c3)n2)cc1
30.4
Cc1ccc(/C(=N/O)c2ccnc(Nc3ccc(C#N)cc3)n2)cc1
13.3

CC50 at 96 h for N#Cc1ccc(Nc2nccc(/C(=N\O)c3ccccc3Cl)n2)cc1 ?
12.6

CC50 at 96 h for N#Cc1ccc(Nc2nccc(/C(=N\O)c3ccccc3F)n2)cc1 ?
5.67

CC50 at 96 h for N#Cc1ccc(Nc2nccc(/C(=N\O)c3ccc4ccccc4c3)n2)cc1 ?
31.6

* * *

Each entry below carries its reported selectivity ratio.
Assay: Selectivity index, ratio of CC50 for human MT4 cells to EC50 for HIV2 ROD
Type: toxicity, cell-based
Details: read-out: Ratio CC50/EC50

Solved cases (3 shown):
Cc1cc(C)cc(/C(=N/O)c2ccnc(Nc3ccc(C#N)cc3)n2)c1
≤ 4
Cc1ccc(/C(=N/O)c2ccnc(Nc3ccc(C#N)cc3)n2)cc1
≤ 2
N#Cc1ccc(Nc2nccc(/C(=N\O)c3ccc(Br)cc3)n2)cc1
≤ 5

Could you now consider this next compound?
selectivity ratio for N#Cc1ccc(Nc2nccc(/C(=N\O)c3ccc(F)cc3)n2)cc1 ?
> 19

* * *

Experiment: Cytotoxicity against human MT4 cells after 4 days by MTT assay
Assay type: cell-based
# note: boundary value 20 µM maps to -1; CC50 at 96 h below it maps to 1

As a guide, the following entries are already answered.
N#Cc1ccc(Nc2nccc(/C(=N\O)c3ccc(F)cc3)n2)cc1
-1
CC(C)(C)c1ccc(/C(=N/O)c2ccnc(Nc3ccc(C#N)cc3)n2)cc1
-1
CC(C)Nc1cccnc1N1CCN(C(=O)c2cc3cc(NS(C)(=O)=O)ccc3[nH]2)CC1
-1
Cc1cc(C)cc(/C(=N/O)c2ccnc(Nc3ccc(C#N)cc3)n2)c1
-1
COc1ccc(/C(=N/O)c2ccnc(Nc3ccc(C#N)cc3)n2)cc1
-1
N#Cc1ccc(Nc2nccc(/C(=N\O)c3cccc(F)c3)n2)cc1
1
N#Cc1ccc(Nc2nccc(/C(=N\O)c3cccc4ccccc34)n2)cc1
-1
N#Cc1ccc(Nc2nccc(/C(=N\O)c3ccccc3Br)n2)cc1
1

Then this compound:
State whether 20 µM exceeds CC50 at 96 h recorded for N#Cc1ccc(Nc2nccc(/C(=N\O)c3ccc(Cl)cc3)n2)cc1 .
1

* * *

Each entry below carries its reported CC50 at 96 h.
Experiment: Cytotoxicity against human MT4 cells after 4 days by MTT assay
Format: cell-based

O=C1Nc2ccc(Cl)cc2[C@@](C#CC2CC2)(C(F)(F)F)O1 [EFAVIRENZ]
> 6.34 µM
Cc1ccnc2c1NC(=O)c1cccnc1N2C1CC1 [NEVIRAPINE]
> 15 µM

Could you now consider this next compound?
CC50 at 96 h for Cc1cccc(/C(=N/O)c2ccnc(Nc3ccc(C#N)cc3)n2)c1 ?
20 µM

Source: ChEMBL document CHEMBL1156184
